- experimental target: hMC5-R (human) (UniProt P33032)
- Sequence (P33032 whole entry): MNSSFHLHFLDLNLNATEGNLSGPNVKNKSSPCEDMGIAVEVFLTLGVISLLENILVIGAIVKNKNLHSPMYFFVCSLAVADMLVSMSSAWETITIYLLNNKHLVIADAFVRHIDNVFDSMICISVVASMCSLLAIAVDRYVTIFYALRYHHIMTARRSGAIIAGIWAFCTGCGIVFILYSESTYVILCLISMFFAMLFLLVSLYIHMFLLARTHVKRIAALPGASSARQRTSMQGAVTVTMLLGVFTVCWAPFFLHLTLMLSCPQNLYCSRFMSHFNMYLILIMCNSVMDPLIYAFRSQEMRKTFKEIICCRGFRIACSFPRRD
- method notes: competition with 0.4 nM 125I-NDP-alpha-MSH on hMC5-R membranes, metallopeptide at 1 µM
Square brackets hold non-standard residues; d marks the D form. Nle = CCCC[C@H](N)C(=O)O
assay metric: % Inhibition at 1 µM (%)

Consider the worked cases shown below.
[[record]]
binder = "Ac-[Nle]AHC[dF]RW-NH2 (bridge (positions not given here) via ReOCl3(PPh3)2; also: oxorhenium(V) metal complex) [Re-complexed Ac-Nle-Ala-His-Cys-D-Phe-Arg-Trp-NH2]"
unit_of_measurement = "%"
result_value = 58

[[record]]
binder = "Ac-[Nle]ACH[dF]RW-NH2 (bridge (positions not given here) via ReOCl3(PPh3)2; also: oxorhenium(V) N3S1 metal chelate (X-X-Cys)) [Re-complexed Ac-Nle-Ala-Cys-His-D-Phe-Arg-Trp-NH2]"
unit_of_measurement = "%"
result_value = 64


[I] Ac-[Nle]AH[dF]CRW-NH2 (bridge (positions not given here) via ReOCl3(PPh3)2; also: oxorhenium(V) metal complex) [Re-complexed Ac-Nle-Ala-His-D-Phe-Cys-Arg-Trp-NH2]
[II] Ac-[Nle]AH[dF]RWC-NH2 (bridge (positions not given here) via ReOCl3(PPh3)2; also: oxorhenium(V) metal complex) [Re-complexed Ac-Nle-Ala-His-D-Phe-Arg-Trp-Cys-NH2]
Looking at recorded values for % Inhibition at 1 µM, does I or II come in lower? Give the label under which the chosen entry appears. I
